- MEASUREMENT SETUP: in isopropyl acetate, 283.15 K
MEASUREMENT NAME: solubility (mole fraction)
Just the number, please, no unit attached.

Recall and state the measured solubility (mole fraction) for CCCSc1nc(N[C@@H]2C[C@H]2c2ccc(F)c(F)c2)c2nnn([C@@H]3C[C@H](OCCO)[C@@H](O)[C@H]3O)c2n1 .
0.00171

----------
- MEASUREMENT SETUP: in sec-butanol, 293.15 K
MEASUREMENT NAME: solubility (mole fraction)

Recall and state the measured solubility (mole fraction) for CCCSc1nc(N[C@@H]2C[C@H]2c2ccc(F)c(F)c2)c2nnn([C@@H]3C[C@H](OCCO)[C@@H](O)[C@H]3O)c2n1 .
0.00359

----------
- MEASUREMENT SETUP: in isopropanol, 283.15 K
MEASUREMENT NAME: solubility (mole fraction)
Just the number, please, no unit attached.

Recall and state the measured solubility (mole fraction) for CCCSc1nc(N[C@@H]2C[C@H]2c2ccc(F)c(F)c2)c2nnn([C@@H]3C[C@H](OCCO)[C@@H](O)[C@H]3O)c2n1 .
0.00138

----------
- MEASUREMENT SETUP: in ethyl acetate, 313.15 K
MEASUREMENT NAME: solubility (mole fraction)
Just the number, please, no unit attached.

Recall and state the measured solubility (mole fraction) for CCCSc1nc(N[C@@H]2C[C@H]2c2ccc(F)c(F)c2)c2nnn([C@@H]3C[C@H](OCCO)[C@@H](O)[C@H]3O)c2n1 .
0.0139

----------
- MEASUREMENT SETUP: in isopropyl acetate, 313.15 K
MEASUREMENT NAME: solubility (mole fraction)

Recall and state the measured solubility (mole fraction) for CCCSc1nc(N[C@@H]2C[C@H]2c2ccc(F)c(F)c2)c2nnn([C@@H]3C[C@H](OCCO)[C@@H](O)[C@H]3O)c2n1 .
0.00545

----------
- MEASUREMENT SETUP: in n-butanol, 278.15 K
MEASUREMENT NAME: solubility (mole fraction)
Just the number, please, no unit attached.

Recall and state the measured solubility (mole fraction) for CCCSc1nc(N[C@@H]2C[C@H]2c2ccc(F)c(F)c2)c2nnn([C@@H]3C[C@H](OCCO)[C@@H](O)[C@H]3O)c2n1 .
0.00155

----------
- MEASUREMENT SETUP: in isopropanol, 293.15 K
MEASUREMENT NAME: solubility (mole fraction)

Recall and state the measured solubility (mole fraction) for CCCSc1nc(N[C@@H]2C[C@H]2c2ccc(F)c(F)c2)c2nnn([C@@H]3C[C@H](OCCO)[C@@H](O)[C@H]3O)c2n1 .
0.00304

----------
- MEASUREMENT SETUP: in isopropanol, 303.15 K
MEASUREMENT NAME: solubility (mole fraction)
Just the number, please, no unit attached.

Recall and state the measured solubility (mole fraction) for CCCSc1nc(N[C@@H]2C[C@H]2c2ccc(F)c(F)c2)c2nnn([C@@H]3C[C@H](OCCO)[C@@H](O)[C@H]3O)c2n1 .
0.00571

----------
- MEASUREMENT SETUP: in sec-butanol, 278.15 K
MEASUREMENT NAME: solubility (mole fraction)
Just the number, please, no unit attached.

Recall and state the measured solubility (mole fraction) for CCCSc1nc(N[C@@H]2C[C@H]2c2ccc(F)c(F)c2)c2nnn([C@@H]3C[C@H](OCCO)[C@@H](O)[C@H]3O)c2n1 .
0.00116

----------
- MEASUREMENT SETUP: in isopropanol, 288.15 K
MEASUREMENT NAME: solubility (mole fraction)
Just the number, please, no unit attached.

Recall and state the measured solubility (mole fraction) for CCCSc1nc(N[C@@H]2C[C@H]2c2ccc(F)c(F)c2)c2nnn([C@@H]3C[C@H](OCCO)[C@@H](O)[C@H]3O)c2n1 .
0.00213

----------
- MEASUREMENT SETUP: in n-butanol, 308.15 K
MEASUREMENT NAME: solubility (mole fraction)
Just the number, please, no unit attached.

Recall and state the measured solubility (mole fraction) for CCCSc1nc(N[C@@H]2C[C@H]2c2ccc(F)c(F)c2)c2nnn([C@@H]3C[C@H](OCCO)[C@@H](O)[C@H]3O)c2n1 .
0.00826

----------
- MEASUREMENT SETUP: in ethyl acetate, 298.15 K
MEASUREMENT NAME: solubility (mole fraction)

Recall and state the measured solubility (mole fraction) for CCCSc1nc(N[C@@H]2C[C@H]2c2ccc(F)c(F)c2)c2nnn([C@@H]3C[C@H](OCCO)[C@@H](O)[C@H]3O)c2n1 .
0.00717

----------
- MEASUREMENT SETUP: in ethyl acetate, 288.15 K
MEASUREMENT NAME: solubility (mole fraction)
Just the number, please, no unit attached.

Recall and state the measured solubility (mole fraction) for CCCSc1nc(N[C@@H]2C[C@H]2c2ccc(F)c(F)c2)c2nnn([C@@H]3C[C@H](OCCO)[C@@H](O)[C@H]3O)c2n1 .
0.00496

----------
- MEASUREMENT SETUP: in isopropyl acetate, 278.15 K
MEASUREMENT NAME: solubility (mole fraction)

Recall and state the measured solubility (mole fraction) for CCCSc1nc(N[C@@H]2C[C@H]2c2ccc(F)c(F)c2)c2nnn([C@@H]3C[C@H](OCCO)[C@@H](O)[C@H]3O)c2n1 .
0.00136

----------
- MEASUREMENT SETUP: in isopropanol, 273.15 K
MEASUREMENT NAME: solubility (mole fraction)
Just the number, please, no unit attached.

Recall and state the measured solubility (mole fraction) for CCCSc1nc(N[C@@H]2C[C@H]2c2ccc(F)c(F)c2)c2nnn([C@@H]3C[C@H](OCCO)[C@@H](O)[C@H]3O)c2n1 .
0.00074

----------
- MEASUREMENT SETUP: in isopropyl acetate, 298.15 K
MEASUREMENT NAME: solubility (mole fraction)
Just the number, please, no unit attached.

Recall and state the measured solubility (mole fraction) for CCCSc1nc(N[C@@H]2C[C@H]2c2ccc(F)c(F)c2)c2nnn([C@@H]3C[C@H](OCCO)[C@@H](O)[C@H]3O)c2n1 .
0.00295

----------
- MEASUREMENT SETUP: in ethyl acetate, 303.15 K
MEASUREMENT NAME: solubility (mole fraction)
Just the number, please, no unit attached.

Recall and state the measured solubility (mole fraction) for CCCSc1nc(N[C@@H]2C[C@H]2c2ccc(F)c(F)c2)c2nnn([C@@H]3C[C@H](OCCO)[C@@H](O)[C@H]3O)c2n1 .
0.00899

----------
- MEASUREMENT SETUP: in n-butanol, 283.15 K
MEASUREMENT NAME: solubility (mole fraction)
Just the number, please, no unit attached.

Recall and state the measured solubility (mole fraction) for CCCSc1nc(N[C@@H]2C[C@H]2c2ccc(F)c(F)c2)c2nnn([C@@H]3C[C@H](OCCO)[C@@H](O)[C@H]3O)c2n1 .
0.0021

----------
- MEASUREMENT SETUP: in isopropanol, 313.15 K
MEASUREMENT NAME: solubility (mole fraction)

Recall and state the measured solubility (mole fraction) for CCCSc1nc(N[C@@H]2C[C@H]2c2ccc(F)c(F)c2)c2nnn([C@@H]3C[C@H](OCCO)[C@@H](O)[C@H]3O)c2n1 .
0.0112

----------
- MEASUREMENT SETUP: in n-propanol, 288.15 K
MEASUREMENT NAME: solubility (mole fraction)
Just the number, please, no unit attached.

Recall and state the measured solubility (mole fraction) for CCCSc1nc(N[C@@H]2C[C@H]2c2ccc(F)c(F)c2)c2nnn([C@@H]3C[C@H](OCCO)[C@@H](O)[C@H]3O)c2n1 .
0.00513

----------
- MEASUREMENT SETUP: in n-butanol, 273.15 K
MEASUREMENT NAME: solubility (mole fraction)
Just the number, please, no unit attached.

Recall and state the measured solubility (mole fraction) for CCCSc1nc(N[C@@H]2C[C@H]2c2ccc(F)c(F)c2)c2nnn([C@@H]3C[C@H](OCCO)[C@@H](O)[C@H]3O)c2n1 .
0.00106

----------
- MEASUREMENT SETUP: in n-propanol, 278.15 K
MEASUREMENT NAME: solubility (mole fraction)
Just the number, please, no unit attached.

Recall and state the measured solubility (mole fraction) for CCCSc1nc(N[C@@H]2C[C@H]2c2ccc(F)c(F)c2)c2nnn([C@@H]3C[C@H](OCCO)[C@@H](O)[C@H]3O)c2n1 .
0.00288

----------
- MEASUREMENT SETUP: in sec-butanol, 273.15 K
MEASUREMENT NAME: solubility (mole fraction)
Just the number, please, no unit attached.

Recall and state the measured solubility (mole fraction) for CCCSc1nc(N[C@@H]2C[C@H]2c2ccc(F)c(F)c2)c2nnn([C@@H]3C[C@H](OCCO)[C@@H](O)[C@H]3O)c2n1 .
0.000855

----------
- MEASUREMENT SETUP: in ethyl acetate, 293.15 K
MEASUREMENT NAME: solubility (mole fraction)
Just the number, please, no unit attached.

Recall and state the measured solubility (mole fraction) for CCCSc1nc(N[C@@H]2C[C@H]2c2ccc(F)c(F)c2)c2nnn([C@@H]3C[C@H](OCCO)[C@@H](O)[C@H]3O)c2n1 .
0.00602
